Origin of values: the Human Domainome abundance scans (Beltran et al. 2025)

B1: POU domain, class 2, transcription factor 1, residues 285 to 354; numbered along this chain, P14859 (parent)
chain: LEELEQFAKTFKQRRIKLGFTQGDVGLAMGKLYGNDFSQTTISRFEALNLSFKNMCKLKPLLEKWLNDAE

Variants of: B1
Experiment: abundance fitness (aPCA) (normalised: wild type 0, dead -1); higher = more abundant; growth selection in yeast, the domain comes from the species named
Conditions: Homo sapiens
Threshold check on abundance fitness: at or above -0.004 gives 1 (yes), strictly below gives 0 (no).

LEELEQFAKTFKQRRIKLGFTQGDVGLAMGKLYGNDFSQFTISRFEALNLSFKNMCKLKPLLEKWLNDAE [T40F]: 1 (yes)
FEELEQFAKTFKQRRIKLGFTQGDVGLAMGKLYGNDFSQTTISRFEALNLSFKNMCKLKPLLEKWLNDAE [L1F]: 1 (yes)
LEELEQFAKTFKQRRIKLGFTQGDVGLAMGKLYGNDFSQTTISRFEALLLSFKNMCKLKPLLEKWLNDAE [N49L]: 0 (no)
KEELEQFAKTFKQRRIKLGFTQGDVGLAMGKLYGNDFSQTTISRFEALNLSFKNMCKLKPLLEKWLNDAE [L1K]: 1 (yes)
LEELEQFAKTFKQRRIKLGFTQGDVGLFMGKLYGNDFSQTTISRFEALNLSFKNMCKLKPLLEKWLNDAE [A28F]: 0 (no)
LEELEQFAKTFKQQRIKLGFTQGDVGLAMGKLYGNDFSQTTISRFEALNLSFKNMCKLKPLLEKWLNDAE [R14Q]: 0 (no)
LEELEQFAKTFKQRRIKRGFTQGDVGLAMGKLYGNDFSQTTISRFEALNLSFKNMCKLKPLLEKWLNDAE [L18R]: 0 (no)
LEELEQFAKTFKQRRIKLGFTQGDVGLMMGKLYGNDFSQTTISRFEALNLSFKNMCKLKPLLEKWLNDAE [A28M]: 0 (no)

**Query** Does LEELEQFAKTFKQRRIKLGFTQGDVGLAMGKLYGNDFSQTTISRFEALNLSFKNMCKNKPLLEKWLNDAE [L58N] have a reported abundance fitness of at least -0.004?
**Result** 0 (no)

**Query** Does LEELEQFAKTFKQRRIKLGFHQGDVGLAMGKLYGNDFSQTTISRFEALNLSFKNMCKLKPLLEKWLNDAE [T21H] have a reported abundance fitness of at least -0.004?
**Result** 0 (no)
